Each item that follows carries a reported fiber score / MBP score.
- System: E18 rat cortical neuron-glia co-culture;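 further: MBP fiber length per Olig2+ nucleus over MBP area × intensity per Olig2+ nucleus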
- Procedure Text: fiber score / MBP score (myelination specific beyond OL differentiation) (ratio); higher = more myelination-specific MBP alignment
- Conditions Used: 1 µM; treatment time: 8 days (DIV5-DIV13)

The cases that follow already have their fiber score / MBP score on record.
query: State recorded fiber score / MBP score with E18 rat cortical neuron-glia co-culture, entry c1ccc2[nH]c(-c3cscn3)nc2c1 [Thiabendazole] , no comment.
result: 1.05

query: State recorded fiber score / MBP score with E18 rat cortical neuron-glia co-culture, entry COc1cc(Cc2cnc(N)nc2N)cc(OC)c1OC [Trimethoprim] , no comment.
result: 0.828

query: State recorded fiber score / MBP score with E18 rat cortical neuron-glia co-culture, entry NC(=O)OCC(COC(N)=O)c1ccccc1 [Felbamate] , no comment.
result: 0.591

query: State recorded fiber score / MBP score with E18 rat cortical neuron-glia co-culture, entry CN(C)CCOC(C)(c1ccccc1)c1ccccn1 (stereo unspecified) [Doxylamine] , no comment.
result: 0.674

query: State recorded fiber score / MBP score with E18 rat cortical neuron-glia co-culture, entry CCN1CCN(c2cc3c(cc2F)c(=O)c(C(=O)O)cn3C2CC2)CC1 [Enrofloxacin] , no comment.
result: 0.94

***
query: State recorded fiber score / MBP score with E18 rat cortical neuron-glia co-culture, entry Cc1cc2c(s1)Nc1ccccc1N=C2N1CCN(C)CC1 [Olanzapine] , no comment.
result: 1.2

query: State recorded fiber score / MBP score with E18 rat cortical neuron-glia co-culture, entry CNC(=C[N+](=O)[O-])NCCSCc1ccc(CN(C)C)o1 [Ranitidine] , no comment.
result: 0.594

query: State recorded fiber score / MBP score with E18 rat cortical neuron-glia co-culture, entry CC1CNc2c(cccc2S(=O)(=O)N[C@@H](CCCNC(=N)N)C(=O)N2CC[C@@H](C)C[C@@H]2C(=O)O)C1 (stereo partly specified) [Argatroban] , no comment.
result: 0.647

query: State recorded fiber score / MBP score with E18 rat cortical neuron-glia co-culture, entry C[C@@H]1C[C@H]2[C@@H]3C[C@H](F)C4=CC(=O)C=C[C@]4(C)[C@@]3(F)[C@@H](O)C[C@]2(C)[C@@]1(O)C(=O)SCF [Fluticasone] , no comment.
result: 0.729

query: State recorded fiber score / MBP score with E18 rat cortical neuron-glia co-culture, entry C#C[C@]1(O)CC[C@H]2[C@@H]3CCc4cc(OC)ccc4[C@H]3CC[C@@]21C [Mestranol] , no comment.
result: 0.724

query: State recorded fiber score / MBP score with E18 rat cortical neuron-glia co-culture, entry O=C1NC(C(=O)O)CS1 (stereo unspecified) [2-oxothiazolidine-4-carboxylic acid] , no comment.
result: 0.704

query: State recorded fiber score / MBP score with E18 rat cortical neuron-glia co-culture, entry Cn1cnc([N+](=O)[O-])c1Sc1ncnc2[nH]cnc12 [Azathioprine] , no comment.
result: 0.762

query: State recorded fiber score / MBP score with E18 rat cortical neuron-glia co-culture, entry COc1ccc(CN2CCN(C(c3ccc(F)cc3)c3ccc(F)cc3)CC2)c(OC)c1OC [Lomerizine] , no comment.
result: 1.05

query: State recorded fiber score / MBP score with E18 rat cortical neuron-glia co-culture, entry CCCc1c(OCCCCc2nnn[nH]2)ccc(C(C)=O)c1O , no comment.
result: 0.683

query: State recorded fiber score / MBP score with E18 rat cortical neuron-glia co-culture, entry CC(=O)OCC(=O)[C@@]1(O)CC[C@H]2[C@@H]3CCC4=CC(=O)C=C[C@]4(C)[C@H]3[C@@H](O)C[C@@]21C [Prednisolone acetate] , no comment.
result: 0.826

query: State recorded fiber score / MBP score with E18 rat cortical neuron-glia co-culture, entry CN1CCc2cc(Cl)c(O)cc2C(c2ccccc2)C1 (stereo unspecified) , no comment.
result: 0.959

query: State recorded fiber score / MBP score with E18 rat cortical neuron-glia co-culture, entry O=C(O)c1cc(=O)c2c(OCC(O)COc3cccc4oc(C(=O)O)cc(=O)c34)cccc2o1 [Cromolyn Sodium] , no comment.
result: 0.501

query: State recorded fiber score / MBP score with E18 rat cortical neuron-glia co-culture, entry NS(=O)(=O)c1cc2c(cc1Cl)N=CNS2(=O)=O [Chlorothiazide] , no comment.
result: 1.05

query: State recorded fiber score / MBP score with E18 rat cortical neuron-glia co-culture, entry CC(=O)NC[C@H]1CN(c2ccc(N3CCOCC3)c(F)c2)C(=O)O1 [linezolid] , no comment.
result: 0.899

query: State recorded fiber score / MBP score with E18 rat cortical neuron-glia co-culture, entry C[C@]12C=CC(=O)C=C1CC[C@@H]1[C@@H]2[C@@H](O)C[C@@]2(C)[C@H]1CC[C@]2(O)C(=O)COC(=O)CCC(=O)O [Prednisolone hemisuccinate] , no comment.
result: 0.88

query: State recorded fiber score / MBP score with E18 rat cortical neuron-glia co-culture, entry Nc1ncnc2c1ncn2[C@@H]1O[C@H](CO)[C@@H](O)[C@H]1O [Adenosine] , no comment.
result: 1.08

query: State recorded fiber score / MBP score with E18 rat cortical neuron-glia co-culture, entry CC(C)NCC(O)COc1cccc2[nH]ccc12 (stereo unspecified) [Pindolol] , no comment.
result: 1.07

query: State recorded fiber score / MBP score with E18 rat cortical neuron-glia co-culture, entry CC(=O)OCC[N+](C)(C)C [Acetylcholine] , no comment.
result: 0.236

Data provenance is the supplement of paper PMC4840960.
